test system: G(−) bacterial strains; assay: Dilution antimicrobial susceptibility tests (MIC, NCCLS agar dilution / broth dilution); format: cell-based, Gram-negative organisms; settings: strain #17 Morganella Morganii; unit assumed
TEST_READOUT: MIC

These recorded examples may help you get a feel for the data.
COMPOUND: C[C@@H](O)C1C(=O)N2C(C(=O)O)=C(CN3CC[C@@H](N)C3)[C@H](C)C12 (stereo partly drawn)
TEST_READOUT: MIC
EXPERIMENTAL_VALUE: 4 µg/mL
--
COMPOUND: CC(O)C1C(=O)N2C(C(=O)O)=C(CN3CCC(C(=N)N)C3)C(C)C12 (stereo not drawn) [Compound 185a]
TEST_READOUT: MIC
EXPERIMENTAL_VALUE: 1 µg/mL
--
COMPOUND: C[C@@H](O)C1C(=O)N2C(C(=O)O)=C(CN3CC[C@H](N(C)C)C3)[C@H](C)C12 (stereo partly drawn)
TEST_READOUT: MIC
EXPERIMENTAL_VALUE: 2 µg/mL

Input line: Requested read-out: MIC. Entry: C[C@@H](O)C1C(=O)N2C(C(=O)O)=C(CN3CC[C@H](C(N)=O)C3)[C@H](C)C12 (stereo partly drawn)
Output line: 2 µg/mL

Input line: Requested read-out: MIC. Entry: C[C@@H](O)[C@H]1C(=O)N2C(C(=O)O)=C(CN3CC(O)C(NC(=N)N)C3)[C@H](C)[C@H]12 (mixture of isomers)
Output line: 1 µg/mL

Input line: Requested read-out: MIC. Entry: C[C@@H](O)C1C(=O)N2C(C(=O)O)=C(CN3CC[C@H](C(=O)NS(C)(=O)=O)C3)[C@H](C)C12 (stereo partly drawn)
Output line: 4 µg/mL

Input line: Requested read-out: MIC. Entry: C[C@@H](O)C1C(=O)N2C(C(=O)O)=C(CN3CC[C@@H](C(N)=O)C3)[C@H](C)C12 (stereo partly drawn)
Output line: 2 µg/mL

Input line: Requested read-out: MIC. Entry: C[C@@H](O)C1C(=O)N2C(C(=O)O)=C(CN3CC[C@H](N)C3)[C@H](C)C12 (stereo partly drawn)
Output line: 4 µg/mL

Input line: Requested read-out: MIC. Entry: C[C@@H](O)C1C(=O)N2C(C(=O)O)=C(CN3CC(NS(N)(=O)=O)C3)[C@H](C)C12 (stereo partly drawn)
Output line: 1 µg/mL

Input line: Requested read-out: MIC. Entry: C[C@@H](O)C1C(=O)N2C(C(=O)O)=C(CN3CC(C(N)=O)C3)[C@H](C)C12 (stereo partly drawn)
Output line: 2 µg/mL

Input line: Requested read-out: MIC. Entry: C[C@@H](O)C1C(=O)N2C(C(=O)O)=C(CN3CCC(NC(=O)CNC(=N)N)C3)[C@H](C)C12 (stereo partly drawn)
Output line: 8 µg/mL

Input line: Requested read-out: MIC. Entry: C[C@@H](O)C1C(=O)N2C(C(=O)O)=C(CN3CC[C@H](NC(=O)CNS(N)(=O)=O)C3)[C@H](C)C12 (stereo partly drawn)
Output line: 8 µg/mL

Input line: Requested read-out: MIC. Entry: C[C@@H](O)C1C(=O)N2C(C(=O)O)=C(CN3CC[C@H](CNC(=N)N)C3)[C@H](C)C12 (stereo partly drawn)
Output line: 4 µg/mL

Input line: Requested read-out: MIC. Entry: C[C@@H](O)C1C(=O)N2C(C(=O)O)=C(CN3CC[C@H](NC(=N)N)C3)[C@H](C)C12 (stereo partly drawn)
Output line: 4 µg/mL

Input line: Requested read-out: MIC. Entry: CC(=O)NC(=N)N[C@H]1CCN(CC2=C(C(=O)O)N3C(=O)C([C@@H](C)O)C3[C@H]2C)C1 (stereo partly drawn)
Output line: 4 µg/mL
